# reported MFI; entries follow
assay.system: T1, recombinant mouse Sortilin (mouse, UniProt Q6PHU5 74-825)
T1 construct: also called mSort
assay.remarks: flow cytometry, 293 cells expressing recombinant mouse Sortilin, 10 ug/ml antibody
Note: state the figure and append the unit.

Examples with answers:
binder: anti-Sortilin antibody S-58 (antibody, V domains shown, IgG) VH: QVQLQESGPGLVKPSETLSLTCAVSGYSISSGYYWGWIRQPPGKGLEWIGSIYHSGNTYYNPSLKSRVTISVDTSKNQFSLKLSSVTAADTAVYYCARGPPELGKMYFQHWGQGTLVTVSS VL: EIVLTQSPATLSVSPGERATLSCRASQSVSSNLAWYQQKPGQAPRLLIYGASTRATGIPARFSGSGSGTEFTLTISSLQSEDFAVYYCQQDRKGPLTFGGGTKVEIK
MFI: 15100 MFI
--
binder: anti-Sortilin antibody S-18 (antibody, V domains shown, IgG) VH: QVQLVQSGAEVKKPGSSVKVSCKASGGTFSSYAISWVRQAPGQGLEWMGSIIPIFGTANYAQKFQGRVTITADESTSTAYMELSSLRSEDTAVYYCARDKHGRRGYYYYMDVWGKGTTVTVSS VL: EIVLTQSPATLSLSPGERATLSCRASQSVSSYLAWYQQKPGQAPRLLIYDASNRATGIPARFSGSGSGTDFTLTISSLEPEDFAVYYCQQGANAPPRTFGGGTKVEIK
MFI: 21700 MFI

Continue with the next binder.
Lookup: // query MFI value for entry anti-Sortilin antibody S-9 (antibody, V domains shown, IgG) VH: QVQLVQSGAEVKKPGASVKVSCKASGYTFTSYGISWVRQAPGQGLEWMGWISAYNGNTNYAQKLQGRVTMTTDTSTSTAYMELRSLRSDDTAVYYCARDPGGYGPTLYYYYGMDVWGQGTTVTVSS VL: EIVMTQSPATLSVSPGERATLSCRASQSVSSNLAWYQQKPGQAPRLLIYGASTRATGIPARFSGSGSGTEFTLTISSLQSEDFAVYYCQQYNIYPLTFGGGTKVEIK
Found: 22200 MFI
